# SI (Selectivity Index, CC50/IC50) annotations
Tested on: SARS-COV-2
Experimental Protocol: microbe, parasite or virus in culture
Type: cell-based
Parameters: unit not given here
Condition Details: SARS-COV-2; values >50 assumed to be 50
Counter-ions that a name gives are not always drawn.
Lab note: jot down the number only; don't add units.

[[record]]
compound = "COc1cc2cc3c(c(-c4ccc(N(C)C5CCCCC5)nc4)c2cc1OC)C(=O)OC3 [Example 175]"
measurement_label = "SI (Selectivity Index, CC50/IC50)"
value_measured = 42.02

[[record]]
compound = "COc1cc2cc3c(c(-c4ccnc5ccc(F)cc45)c2cc1OC)C(=O)OC3 [Example 148]"
measurement_label = "SI (Selectivity Index, CC50/IC50)"
value_measured = 1.0

[[record]]
compound = "CCN(CC)CCNc1ncc(-c2c3c(cc4cc(OC)c(OC)cc24)COC3=O)cn1 [Example 58]"
measurement_label = "SI (Selectivity Index, CC50/IC50)"
value_measured = 1.66

[[record]]
compound = "COc1cc2cc3c(c(-c4ccc5oc6ccccc6c5c4)c2cc1OC)C(=O)OC3 [Example 43]"
measurement_label = "SI (Selectivity Index, CC50/IC50)"
value_measured = 1.00

[[record]]
compound = "COc1cc2cc3c(c(-c4ccc(N5C(=O)OC[C@@H]5Cc5ccccc5)nc4)c2cc1OC)C(=O)OC3 [Example 211]"
measurement_label = "SI (Selectivity Index, CC50/IC50)"
value_measured = 12.50

[[record]]
compound = "COC[C@H]1CCCN1c1ncc(-c2c3c(cc4cc(OC)c(OC)cc24)COC3=O)cn1 [Example 102, hydrochloride]"
measurement_label = "SI (Selectivity Index, CC50/IC50)"
value_measured = 30.41


Okay, now this compound:
For the compound shown here, COc1cc2cc3c(c(-c4cnc(N(C)C5CCCCC5)nc4)c2cc1OC)C(=O)OC3.Cl [Example 79] , give the reported SI (Selectivity Index, CC50/IC50).
46.19

---

Tested on: SARS-COV-2
Experimental Protocol: microbe, parasite or virus in culture
Format: cell-based
Parameters: unit not given here
Condition Details: SARS-COV-2; values >50 assumed to be 50
Measurement Label: SI (Selectivity Index, CC50/IC50)
Form: value (number only, do not type unit).

Need SI (Selectivity Index, CC50/IC50), item COc1cc2cc3c(c(-c4ccc(N5CCC(O)CC5)nc4)c2cc1OC)C(=O)OC3
11.69

Another: COc1cc2cc3c(c(-c4cnc(N(CC(C)C)CC(C)C)nc4)c2cc1OC)C(=O)OC3.Cl
0.75

Thanks! And COc1cc2cc3c(c(-c4cc(C)nc5c(OC)cccc45)c2cc1OC)C(=O)OC3 ?
1.0

Subsequent entry: COc1cc2cc3c(c(-c4cc5c(cc4OC(=O)OC4CCCCC4)OCO5)c2cc1OC)C(=O)OC3
8.70

Also, COc1cc2cc3c(c(-c4cnc(OC)c(-c5nc6ccccc6[nH]5)c4)c2cc1OC)C(=O)OC3 please.
0.93

Query COc1cc2cc3c(c(-c4cnccn4)c2cc1OC)C(=O)OC3 next
1.00

Another molecule: CCC(C)CN(C)c1ncc(-c2c3c(cc4cc(OC)c(OC)cc24)COC3=O)cn1 (stereo not shown)
19.30

What about this molecule? COc1cc2cc3c(c(N4CCN(CCN5CCOCC5)CC4)c2cc1OC)C(=O)OC3
1.0

How about this molecule: COc1ccc2nc(C)cc(-c3c4c(cc5cc(OC)c(OC)cc35)COC4=O)c2c1
1.0

Would you kindly repeat that for COc1cc2cc3c(c(-c4cnc(N5CCc6ccccc6[C@@H]5c5ccccc5)nc4)c2cc1OC)C(=O)OC3 ?
1.0

Now try COc1cc2cc3c(c(-c4cnc(N(C)CCC5=CCCCC5)nc4)c2cc1OC)C(=O)OC3.Cl .
13.00

Record: CNc1ccc(-c2c3c(cc4cc(OC)c(OC)cc24)COC3=O)cc1
15.18

Also CCC(C)Oc1ncc(-c2c3c(cc4cc(OC)c(OC)cc24)COC3=O)cn1 (stereo not shown) ?
1.00

Please answer likewise for COc1cc2cc3c(c(-c4ccc(N(C)Cc5cccnc5)cc4)c2cc1OC)C(=O)OC3
15.74

COc1cc2cc3c(c(N4CCN(CCO)CC4)c2cc1OC)C(=O)OC3 ?
1.0

Consider next the molecule COc1cc2cc3c(c(-c4ccc5occc5c4)c2cc1OC)C(=O)OC3 in the same way.
35.13

// next record CCOC(=O)[C@@H]1CCCN1c1ncc(-c2c3c(cc4cc(OC)c(OC)cc24)COC3=O)cn1
1.60

Then COc1cc2cc3c(c(-c4cc5c(cc4OP(=O)(NCCN4CCOCC4)Oc4ccccc4)OCO5)c2cc1OC)C(=O)OC3 (stereo not shown) ?
8.21

Check CCCCN(CC)c1ncc(-c2c3c(cc4cc(OC)c(OC)cc24)COC3=O)cn1 too.
19.03

---

System: SARS-COV-2
Experimental Protocol: microbe, parasite or virus in culture
Assay type: cell-based
Parameters: unit not given here
Condition Details: SARS-COV-2; values >50 assumed to be 50
Measurement Label: SI (Selectivity Index, CC50/IC50)
A bare number is all that is needed in reply.

[[record]]
chemical_string = "COCCN(C)c1c2c(cc3cc(OC)c(OC)cc13)COC2=O"
measurement_label = "SI (Selectivity Index, CC50/IC50)"
value_measured = 1.00

[[record]]
chemical_string = "COc1cc2cc3c(c(-c4cnc(N(C)C5CCCC5)nc4)c2cc1OC)C(=O)OC3.Cl"
measurement_label = "SI (Selectivity Index, CC50/IC50)"
value_measured = 237.53

[[record]]
chemical_string = "COc1cc2cc3c(c(-c4ccc(N(C)C5CCCC5)nc4)c2cc1OC)C(=O)OC3"
measurement_label = "SI (Selectivity Index, CC50/IC50)"
value_measured = 180.12


Quick one: SI (Selectivity Index, CC50/IC50) of COc1cc2cc3c(c(N4CCN(c5ccc(Br)cn5)CC4)c2cc1OC)C(=O)OC3 ?
2.29

---

# reported pIC50; entries follow
Tested on: SARS-COV-2
Experimental Protocol: microbe, parasite or virus in culture
Format: cell-based
Condition Details: Severe acute respiratory syndrome coronavirus 2; Vero cells, 24 hours infection; read-out: SARS-COV-2 inhibition (IC50)
pIC50: −log10 of the molar value.

Sample answers from the record:
[[record]]
chemical_string = "COc1ccc2nc(C)cc(-c3c4c(cc5cc(OC)c(OC)cc35)COC4=O)c2c1"
measurement_label = "pIC50"
value_measured = "< 4.30"

[[record]]
chemical_string = "COc1cc2cc3c(c(-c4cnc(Oc5cccc6ccccc56)nc4)c2cc1OC)C(=O)OC3"
measurement_label = "pIC50"
value_measured = "< 4.30"


Pending compound:
I'm curious: which pIC50 was measured for COCCN(C)C(=O)[C@@H]1CCCN1c1ncc(-c2c3c(cc4cc(OC)c(OC)cc24)COC3=O)cn1 tested on SARS-COV-2?
< 4.30

---

Tested on: SARS-COV-2
Experimental Protocol: microbe, parasite or virus in culture
Assay type: cell-based
Condition Details: Severe acute respiratory syndrome coronavirus 2; Vero cells, 24 hours infection; read-out: SARS-COV-2 inhibition (IC50)
Recorded IC50 values for a group of compounds are listed next.

A selection of reference data follows.
[[record]]
compound = "COc1cc2cc3c(c(-c4ccnc5c(F)cccc45)c2cc1OC)C(=O)OC3 [Example 137]"
value_measured = "> 50 µM"

[[record]]
compound = "COc1cc2cc3c(c(-c4ccc5c(O)cc(C)nc5c4C)c2cc1OC)C(=O)OC3 [Example 146]"
value_measured = "> 50 µM"

[[record]]
compound = "COc1cc2cc3c(c(-c4cc5c(cc4OC(=O)c4cccnc4)OCO5)c2cc1OC)C(=O)OC3 [Example 272]"
value_measured = "1.84 µM"

[[record]]
compound = "CCCCN(CC)c1ncc(-c2c3c(cc4cc(OC)c(OC)cc24)COC3=O)cn1 [Example 66]"
value_measured = "2.63 µM"

[[record]]
compound = "COc1cc2c(OC)c3c(c(-c4ccc5c(c4)OC(F)(F)O5)c2cc1OC)COC3=O [Example 259]"
value_measured = "> 50 µM"


For the record CCN(CC)CCNc1ncc(-c2c3c(cc4cc(OC)c(OC)cc24)COC3=O)cn1 [Example 58] , what value of IC50 is listed for SARS-COV-2?
30.1 µM

Likewise for COc1cc2cc3c(c(-c4cc5c(cc4OC(=O)[C@@H]4CCCN4)OCO5)c2cc1OC)C(=O)OC3 [Example 273] ?
1.37 µM

# repeat for COc1cc2cc3c(c(-c4ccc(N(C)C(=O)C(C)(C)C)nc4)c2cc1OC)C(=O)OC3 [Example 233]
> 50 µM

Can you handle CCN(c1ccc(-c2c3c(cc4cc(OC)c(OC)cc24)COC3=O)cn1)C1Cc2ccccc2C1 [Example 195] next?
5.27 µM

Next compound up: CCCOCCNc1ncc(-c2c3c(cc4cc(OC)c(OC)cc24)COC3=O)cn1 [Example 37]
> 50 µM

Also, CCCCN(C)c1ccc(-c2c3c(cc4cc(OC)c(OC)cc24)COC3=O)cn1 [Example 180] please.
0.68 µM
